B1: APBB1IP (parent)
chain: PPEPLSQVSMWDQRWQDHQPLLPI

Variants of: B1
Assay: protein stability index of a GFP-peptide fusion (GPS, HEK-293T) (PSI 1-6); higher = more stable;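 further: lentivirally expressed fusions sorted by FACS into six bins by GFP to DsRed ratio, PSI derived from sequencing read proportions per bin multiplied by bin number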
Conditions: c terminus: a fixed tail appended
recorded_metric: protein stability index

In [3]: df
Out[3]:
                    record_sequence  reported_value
 0   PPEPLFQVSMWDQRWQDHQPLLPI [S6F]            2.23
 1   PPEPQSQVSMWDQRWQDHQPLLPI [L5Q]            3.53
 2   PPEPASQVSMWDQRWQDHQPLLPI [L5A]            3.74
 3   PAEPLSQVSMWDQRWQDHQPLLPI [P2A]            2.71
 4  PPEPLSQVSMWDQRWQDHQPLMPI [L22M]            2.58
 5  PPEPLSQVSEWDQRWQDHQPLLPI [M10E]            3.98
 6  PPEPLSQVSMWDQRWQDHQPLLFI [P23F]            1.67
 7   PPEPLSQVVMWDQRWQDHQPLLPI [S9V]            3.35
 8   PPEPLSTVSMWDQRWQDHQPLLPI [Q7T]             3.3
 9  PPEPLSQVSMWDQRWQDHQPLIPI [L22I]            2.49
10  PPEPLSQVSMWDQRWQDHQPMLPI [L21M]             3.4
11  PPEPLSQVSMWDQRWQDHAPLLPI [Q19A]            3.04
12   PPSPLSQVSMWDQRWQDHQPLLPI [E3S]            3.01
13  PPEPLSQVSMWDQRWNDHQPLLPI [Q16N]            2.85
14  PPEPLSQVSMWDQRWQDHQPPLPI [L21P]            3.54
15   PPNPLSQVSMWDQRWQDHQPLLPI [E3N]            3.56
16   PPEPPSQVSMWDQRWQDHQPLLPI [L5P]            3.88
17  PPEPLSQVSMWDQRWQDHQPCLPI [L21C]             3.4
18  PPEPLSQVSMWPQRWQDHQPLLPI [D12P]            2.89
19  PPEPLSQVSMWDQRWQDHQPLLLI [P23L]            1.99
20  PPEPLSQVSMWDQRWQDHQPFLPI [L21F]            2.24
21  PPEPLSQVSMLDQRWQDHQPLLPI [W11L]            3.77
22  PPEPLSQVSMWDQRWQDHQILLPI [P20I]            2.77
23  PPEPLSQVSMWDKRWQDHQPLLPI [Q13K]            2.76
24  PPEPLSQVSMWDQRVQDHQPLLPI [W15V]            3.93
25  PPEPLSQVSMWDQRWQDYQPLLPI [H18Y]             3.2
26   PPEPDSQVSMWDQRWQDHQPLLPI [L5D]            3.58
27   PPEPLSQVYMWDQRWQDHQPLLPI [S9Y]            2.57
28  PPEPLSQVSMWDQRWQDHNPLLPI [Q19N]               3
29   PPMPLSQVSMWDQRWQDHQPLLPI [E3M]            2.94
30  PPEPLSQVSAWDQRWQDHQPLLPI [M10A]            3.52
